The reported measurements were obtained from patent US4780476A.

Give measured number of animals reacting for each item. Keep answers brief.
tested on: awake guinea pig (cholinergically-induced bronchial cramps); test: inhalative provocation with acetyl-β-methylcholine chloride aerosol on awake guinea pigs (broncholytic/protective action); format: in vivo; conditions: acetyl-β-methylcholine chloride w=0.001780; trospium chloride 10 tested, dehydrotrospium chloride 9, atropine 9, isoproterenol 8; pre-treatment 3×10^-7 mol ml^-1 kg^-1 i.p.
Where a name gives a salt, the structure may show the parent alone.

Recorded number of animals reacting for CN1[C@@H]2CC[C@H]1C[C@@H](OC(=O)C(CO)c1ccccc1)C2 (stereo partly shown) [atropine chloride, atropine hydrochloride, reference compound] with awake guinea pig (cholinergically-induced bronchial cramps), please?
5

Recorded number of animals reacting for O=C(OC1CC2CCC(C1)[N+]21CC=CC1)C(O)(c1ccccc1)c1ccccc1 (stereo not shown) [dehydrotrospium chloride] with awake guinea pig (cholinergically-induced bronchial cramps), please?
6

Recorded number of animals reacting for CC(C)NCC(O)c1ccc(O)c(O)c1 (stereo not shown) [isoproterenol, reference compound] with awake guinea pig (cholinergically-induced bronchial cramps), please?
5

Recorded number of animals reacting for O=C(O[C@H]1C[C@H]2CC[C@@H](C1)[N+]21CCCC1)C(O)(c1ccccc1)c1ccccc1 [trospium chloride] with awake guinea pig (cholinergically-induced bronchial cramps), please?
5
